Test system: Proteus vulgaris
Experiment: Antimicrobial activity against Proteus vulgaris MTCC 1771 assessed as growth inhibition after 24 hr by agar streak dilution method
Assay type: functional
Settings: MTCC 1771, 24 h
So I've got a bunch of compounds here, and I need their MIC values.
Give bare numbers, in µg/mL.

Solved entries (count: 2):
>>> df
                  compound_structure_string  property_name  test_value
0  O=C(/C=C/c1ccc(F)cc1)c1ccc(Nc2cc(=O)oc3ccccc23)cc1            MIC          50
1  Nc1nc(-c2ccc(Cl)cc2)cc(-c2ccc(Nc3cc(=O)oc4ccccc34)cc2)n1            MIC        12.5

--- query ---
Lookup: Param item = O=C(/C=C/c1ccc(O)cc1O)c1ccc(Nc2cc(=O)oc3ccccc23)cc1 ; retrieve measured MIC.
Found: 25
